Hey, just so you know, these numbers are from patent US11260049B2.

Target: human TRPV4 (Homo sapiens (Human))
Sequence (Q9HBA0 whole entry): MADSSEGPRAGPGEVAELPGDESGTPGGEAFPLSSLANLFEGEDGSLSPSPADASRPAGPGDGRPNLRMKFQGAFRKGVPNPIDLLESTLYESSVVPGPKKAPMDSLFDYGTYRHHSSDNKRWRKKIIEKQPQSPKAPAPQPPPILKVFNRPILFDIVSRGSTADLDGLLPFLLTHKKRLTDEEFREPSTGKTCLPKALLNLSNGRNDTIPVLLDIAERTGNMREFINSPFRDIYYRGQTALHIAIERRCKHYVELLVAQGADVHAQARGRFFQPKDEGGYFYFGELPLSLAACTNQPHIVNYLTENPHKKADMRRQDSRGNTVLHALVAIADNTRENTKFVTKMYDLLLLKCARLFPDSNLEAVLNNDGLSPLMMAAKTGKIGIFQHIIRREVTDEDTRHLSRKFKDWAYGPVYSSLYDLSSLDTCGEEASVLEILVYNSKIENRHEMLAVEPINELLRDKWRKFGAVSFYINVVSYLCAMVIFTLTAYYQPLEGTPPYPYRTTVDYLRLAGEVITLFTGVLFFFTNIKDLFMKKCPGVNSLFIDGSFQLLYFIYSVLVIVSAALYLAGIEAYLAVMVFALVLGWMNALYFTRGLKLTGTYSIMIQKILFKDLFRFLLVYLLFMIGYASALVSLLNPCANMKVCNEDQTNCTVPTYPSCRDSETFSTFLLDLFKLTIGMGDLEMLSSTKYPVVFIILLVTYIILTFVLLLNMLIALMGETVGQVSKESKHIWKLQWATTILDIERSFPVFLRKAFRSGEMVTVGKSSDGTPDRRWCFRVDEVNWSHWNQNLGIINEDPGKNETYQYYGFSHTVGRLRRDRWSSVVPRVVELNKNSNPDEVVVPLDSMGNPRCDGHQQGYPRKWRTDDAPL
Assay: FLIPR assay for hTRPV4 expressed in BHK cells
Assay type: cell-based
Settings: at least one set of experimental runs; TRPV4 FLIPR assay; read-out: average IC50
In this section we review reported pIC50 values for a set of compounds.
Value format note: pIC50 is -log10 of concentration (mol/L); just state the number.

[
  {
    "structure smiles string": "N#Cc1ccc(S(=O)(=O)N2C[C@H](S(=O)(=O)c3ccc(Cl)cn3)[C@](O)(CO)C2)c(Cl)c1",
    "assay target": "human TRPV4 (Homo sapiens (Human))",
    "pIC50": 8.30
  }
]

Suppose we examine the compound N#Cc1ccc(S(=O)(=O)[C@H]2CN(S(=O)(=O)c3ccc(F)cc3Br)C[C@@]2(O)CO)cc1 ; what pIC50 value has been reported?
7.89

---

In this section we review reported IC50 values for a set of compounds.
Target: human TRPV4 (Homo sapiens (Human))
Assay: FLIPR assay for hTRPV4 expressed in BHK cells
Type: cell-based
Settings: inhibition of Agonist Compound (EC80)-induced calcium signal; BHK/AC9 cells expressing human TRPV4; read-out: IC50

For human TRPV4 (Homo sapiens (Human)), provide IC50 of O=S(=O)(c1ccc(Cl)cc1)[C@H]1CN(S(=O)(=O)c2ccc(CF)cc2Cl)C[C@@]1(O)CO [Example 43] please.
10 to 100 nM

For human TRPV4 (Homo sapiens (Human)), provide IC50 of N#Cc1ccc(S(=O)(=O)N2C[C@H](S(=O)(=O)c3ccc(Br)cn3)[C@](O)(CO)C2)c(Cl)c1 [Example 113] please.
0.1 to 10 nM

For human TRPV4 (Homo sapiens (Human)), provide IC50 of O=S(=O)(c1ccc(C(F)(F)F)cc1)[C@H]1CN(S(=O)(=O)c2ccc(C(F)(F)F)cc2Cl)C[C@@]1(O)CO [Example 96] please.
10 to 100 nM

For human TRPV4 (Homo sapiens (Human)), provide IC50 of N#Cc1c(F)cc(S(=O)(=O)[C@H]2CN(S(=O)(=O)c3ccc(C(F)(F)F)cc3Cl)C[C@@]2(O)CO)cc1F [Example 91] please.
10 to 100 nM

For human TRPV4 (Homo sapiens (Human)), provide IC50 of N#Cc1ccc(S(=O)(=O)[C@H]2CN(S(=O)(=O)c3ccc(F)cc3Cl)C[C@@]2(O)CO)cc1 [Example 62] please.
10 to 100 nM

For human TRPV4 (Homo sapiens (Human)), provide IC50 of Cc1ccc(S(=O)(=O)N2C[C@H](S(=O)(=O)c3ccc(C#N)c(F)c3)[C@](O)(CO)C2)c(Cl)c1 [Example 13] please.
0.1 to 10 nM

For human TRPV4 (Homo sapiens (Human)), provide IC50 of N#Cc1ccc(S(=O)(=O)[C@H]2CN(S(=O)(=O)c3ccc(OC(F)(F)F)cc3Cl)C[C@]2(O)CO)cc1F [Example 8] please.
10 to 100 nM

---

In this section we review reported IC50 values for a set of molecules.
Target: human TRPV4 (Homo sapiens (Human))
Assay: FLIPR assay for hTRPV4 expressed in BHK cells
Assay type: cell-based
Conditions: inhibition of Agonist Compound (EC80)-induced calcium signal; BHK/AC9 cells expressing human TRPV4; read-out: IC50

[
  {
    "molecule": "Cc1nc(C(F)(F)F)ccc1S(=O)(=O)N1C[C@H](S(=O)(=O)c2ccc(C#N)c(F)c2)[C@](O)(CO)C1 [Example 72]",
    "assay target": "human TRPV4 (Homo sapiens (Human))",
    "assay metric": "IC50",
    "experimental result": "10 to 100 nM"
  },
  {
    "molecule": "O=S(=O)(c1ccc(Cl)c(Cl)c1)[C@H]1CN(S(=O)(=O)c2ccc(Cl)cc2Cl)C[C@@]1(O)CO [Example 114]",
    "assay target": "human TRPV4 (Homo sapiens (Human))",
    "assay metric": "IC50",
    "experimental result": "10 to 100 nM"
  },
  {
    "molecule": "Cc1ccc(S(=O)(=O)N2C[C@H](S(=O)(=O)c3ccc(C#N)c(F)c3)[C@@](O)(CO)C2)c(Cl)c1 [Example 6]",
    "assay target": "human TRPV4 (Homo sapiens (Human))",
    "assay metric": "IC50",
    "experimental result": "10 to 100 nM"
  },
  {
    "molecule": "Cc1cc(C(F)(F)F)ccc1S(=O)(=O)N1C[C@H](S(=O)(=O)c2ccc(C#N)cc2)[C@](O)(CO)C1 [Example 28]",
    "assay target": "human TRPV4 (Homo sapiens (Human))",
    "assay metric": "IC50",
    "experimental result": "10 to 100 nM"
  },
  {
    "molecule": "N#Cc1cc(Cl)ccc1S(=O)(=O)N1C[C@H](S(=O)(=O)c2ccc(Cl)cc2)[C@](O)(CO)C1 [Example 17]",
    "assay target": "human TRPV4 (Homo sapiens (Human))",
    "assay metric": "IC50",
    "experimental result": "0.1 to 10 nM"
  },
  {
    "molecule": "N#Cc1ccc(S(=O)(=O)N2C[C@H](S(=O)(=O)c3ccc(Cl)c(F)c3)[C@](O)(CO)C2)c(Cl)c1 [Example 107]",
    "assay target": "human TRPV4 (Homo sapiens (Human))",
    "assay metric": "IC50",
    "experimental result": "0.1 to 10 nM"
  }
]

Suppose we examine the molecule N#Cc1cc(C(F)(F)F)ccc1S(=O)(=O)N1C[C@H](S(=O)(=O)c2ccc(F)c(F)c2)[C@@](O)(CO)C1 [Example 77] ; what IC50 value has been reported?
10 to 100 nM

---

Biological target: human TRPV4 (Homo sapiens (Human))
Assay: FLIPR assay for hTRPV4 expressed in BHK cells
Format: cell-based
Conditions: inhibition of Agonist Compound (EC80)-induced calcium signal; BHK/AC9 cells expressing human TRPV4; read-out: IC50
Text: FLIPR Assay for hTRPV4 Expressed in BHK Cells: TRPV4 channel activation results in an influx of divalent and monovalent cations including calcium. The resulting changes in intracellular calcium were monitored using a calcium specific fluorescent dye Fluo-4 (MDS Analytical Technologies). […]
pIC50: −log10 of the molar value.
assay metric: pIC50

See these solved cases before continuing.
[
  {
    "structure smiles string": "N#Cc1ccc(S(=O)(=O)[C@H]2CN(S(=O)(=O)c3ccc(Cl)cc3Cl)C[C@]2(O)CO)cc1F",
    "pIC50": "8.00 to 10.00"
  },
  {
    "structure smiles string": "N#Cc1ccc(S(=O)(=O)N2C[C@H](S(=O)(=O)c3ccc(C(F)(F)F)cc3)[C@](O)(CO)C2)c(C(F)F)c1",
    "pIC50": "8.00 to 10.00"
  },
  {
    "structure smiles string": "Cc1ccc(S(=O)(=O)N2C[C@H](S(=O)(=O)c3ccc(C#N)cc3)[C@](O)(CO)C2)c(Cl)c1",
    "pIC50": "7.00 to 8.00"
  },
  {
    "structure smiles string": "N#Cc1ccc(S(=O)(=O)N2C[C@H](S(=O)(=O)c3ccc(C(F)(F)F)cn3)[C@](O)(CO)C2)c(OC2CC2)c1",
    "pIC50": "7.00 to 8.00"
  },
  {
    "structure smiles string": "CCc1cc(C#N)ccc1S(=O)(=O)N1C[C@H](S(=O)(=O)c2ccc(Cl)cc2)[C@](O)(CO)C1",
    "pIC50": "7.00 to 8.00"
  }
]

Suppose we examine the molecule N#Cc1ccc(S(=O)(=O)[C@H]2CN(S(=O)(=O)c3ccc(CF)cc3Cl)C[C@@]2(O)CO)cc1 ; what pIC50 value has been reported?
7.00 to 8.00

Suppose we examine the molecule N#Cc1ccc(S(=O)(=O)N2C[C@H](S(=O)(=O)c3ccc(Cl)cn3)[C@@](O)(CO)C2)c(Cl)c1 ; what pIC50 value has been reported?
7.00 to 8.00

Suppose we examine the molecule Cc1cc(C#N)ccc1S(=O)(=O)N1C[C@H](S(=O)(=O)c2ccc(C#N)c(F)c2)[C@](O)(CO)C1 ; what pIC50 value has been reported?
8.00 to 10.00

Suppose we examine the molecule O=S(=O)(c1ccc(Cl)cc1)[C@H]1CN(S(=O)(=O)c2cccnc2OC(F)F)C[C@@]1(O)CO ; what pIC50 value has been reported?
7.00 to 8.00

Suppose we examine the molecule N#Cc1ccc(S(=O)(=O)[C@H]2CN(S(=O)(=O)c3ccc(Cl)cc3C#N)C[C@@]2(O)CO)cc1 ; what pIC50 value has been reported?
8.00 to 10.00

Suppose we examine the molecule N#Cc1ccc(S(=O)(=O)[C@H]2CN(S(=O)(=O)c3ccccc3Cl)C[C@]2(O)CO)cc1F ; what pIC50 value has been reported?
7.00 to 8.00

Suppose we examine the molecule N#Cc1cc(Cl)ccc1S(=O)(=O)N1C[C@H](S(=O)(=O)c2ccc(C(F)(F)F)nc2)[C@](O)(CO)C1 ; what pIC50 value has been reported?
7.00 to 8.00

Suppose we examine the molecule O=S(=O)(c1ccc(Cl)c(F)c1)[C@H]1CN(S(=O)(=O)c2ccc(Cl)cc2Cl)C[C@]1(O)CO ; what pIC50 value has been reported?
7.00 to 8.00

Suppose we examine the molecule N#Cc1ccc(S(=O)(=O)[C@H]2CN(S(=O)(=O)c3ccccc3Cl)C[C@@]2(O)CO)cc1F ; what pIC50 value has been reported?
7.00 to 8.00

Suppose we examine the molecule N#Cc1ccc(S(=O)(=O)[C@H]2CN(S(=O)(=O)c3ccc(Cl)cc3C(F)(F)F)C[C@@]2(O)CO)cc1 ; what pIC50 value has been reported?
8.00 to 10.00

Suppose we examine the molecule N#Cc1ccc(S(=O)(=O)[C@H]2CN(S(=O)(=O)c3ccc(C(F)(F)F)cc3F)C[C@@]2(O)CO)cc1 ; what pIC50 value has been reported?
7.00 to 8.00

Suppose we examine the molecule O=S(=O)(c1ccc(F)c(F)c1)[C@H]1CN(S(=O)(=O)c2ccc(Cl)cc2Cl)C[C@@]1(O)CO ; what pIC50 value has been reported?
7.00 to 8.00

Suppose we examine the molecule N#Cc1ccccc1S(=O)(=O)N1C[C@H](S(=O)(=O)c2ccc(Cl)cc2)[C@](O)(CO)C1 ; what pIC50 value has been reported?
7.00 to 8.00

Suppose we examine the molecule N#Cc1cc(C(F)(F)F)ccc1S(=O)(=O)N1C[C@H](S(=O)(=O)c2cc(F)c(F)c(F)c2)[C@](O)(CO)C1 ; what pIC50 value has been reported?
7.00 to 8.00

Suppose we examine the molecule N#Cc1ccc(S(=O)(=O)[C@H]2CN(S(=O)(=O)c3ccc(Cl)cc3Cl)C[C@@]2(O)CO)c(F)c1 ; what pIC50 value has been reported?
7.00 to 8.00

Suppose we examine the molecule N#Cc1ccc(S(=O)(=O)[C@H]2CN(S(=O)(=O)c3ccc(Cl)cc3Cl)C[C@@]2(O)CO)cc1 ; what pIC50 value has been reported?
8.00 to 10.00

Suppose we examine the molecule N#Cc1ccc(S(=O)(=O)N2C[C@H](S(=O)(=O)c3ccc(Br)cc3)[C@@](O)(CO)C2)c(Cl)c1 ; what pIC50 value has been reported?
7.00 to 8.00

Suppose we examine the molecule N#Cc1ccc(S(=O)(=O)N2C[C@H](S(=O)(=O)c3ccc(Cl)cc3)[C@](O)(CO)C2)c(Br)c1 ; what pIC50 value has been reported?
8.00 to 10.00

Suppose we examine the molecule N#Cc1ccc(S(=O)(=O)N2C[C@H](S(=O)(=O)c3ncc(Cl)s3)[C@](O)(CO)C2)c(Cl)c1 ; what pIC50 value has been reported?
7.00 to 8.00

Suppose we examine the molecule CNC[C@]1(O)CN(S(=O)(=O)c2ccc(C#N)cc2Cl)C[C@@H]1S(=O)(=O)c1ccc(Cl)cc1 ; what pIC50 value has been reported?
8.00 to 10.00
